Recorded values, source the supplement of paper PMC10567573.

method notes: protein stability index of a GFP-peptide fusion (GPS, HEK-293T) (PSI 1-6); higher = more stable;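 also: 24-mer peptide tiles fused after GFP, lentivirally expressed, FACS-sorted into six equal bins by GFP/DsRed ratio, decoded by Illumina sequencing, PSI is the read-weighted mean bin number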
conditions used: treatment: MLN4924 1 uM, 8 h; c terminus: a fixed tail appended
Rule: protein stability index under 3 gives class 0, otherwise class 1.

- polymer sequence: "ISPKARCLIRSLLRREPSERLTAP [TRIB1]"
  group: "class 0"
- polymer sequence: "CATGLLGSAPFLFLSLACARGSIV [SPNS1]"
  group: "class 0"
- polymer sequence: "MNARGLGSELKDSIPVTELSASGP [POMP]"
  group: "class 1"
- polymer sequence: "LQNQNFPYPVLFHNIFLLGGSSTS [NLN]"
  group: "class 0"

[in] Reported protein stability index at or above 3? ESFFVDYEENEGAGPYLLNGSYLE [ADAMTSL2]
[out] class 1

[in] Has RLPWAGQLTKELPLSPAFFGEDGI [PBXIP1] a recorded protein stability index greater than or equal to 3?
[out] class 1

[in] Does the sequence LDAHYHVKISDFGLAKCNGLSHSH [RIPK4] have recorded protein stability index that is 3 or more?
[out] class 0

[in] # check: protein stability index of CGPAEERVLLTGLHAVADIHCENC [YPEL3] is greater than or equal to 3
[out] class 1

[in] Could you please find out whether NSYPRADTGLFSRSKSGSEEVLCD [TRIM29] has protein stability index that meets 3 or exceeds it?
[out] class 1

[in] Confirm if protein stability index reported for the sequence VISLEKLNVGNERYVFEAVIRWIA [GAN] is 3 or above.
[out] class 0

[in] Dear colleague, could you confirm whether FPEELHRKAALEQDLAFWYGPRWQ [HMOX1] has protein stability index at or above 3?
[out] class 0

[in] Decide: protein stability index of KAAEGGLSSPEFSELCIWLGSQIK [FAM98B] >= 3?
[out] class 0

[in] Record ASDIMEPNLTYVYPHTRIQSLVSI [CLCN6] ; criterion: protein stability index no lower than 3. Met?
[out] class 0

[in] Given the entry ETQTQRGGEFQCGLEAASVYSDHT [RNF180] , answer whether its protein stability index meets or surpasses 3.
[out] class 0

* * *

method notes: protein stability index of a GFP-peptide fusion (GPS, HEK-293T) (PSI 1-6); higher = more stable
conditions used: treatment: MLN4924 1 uM, 8 h; c terminus: a fixed tail appended
metric: protein stability index

These solved cases illustrate the format of a correct answer.
- polymer sequence: "EFFGSASQPAVELVSGSQSALGPP [CLINT1]"
  protein stability index: 3.92
- polymer sequence: "LRDPATITTLRVPVLRPMDLMVEA [PPP2R2B]"
  protein stability index: 2.94
- polymer sequence: "SIRILDELVLPFQELQIDDNEYAY [HNF4A]"
  protein stability index: 3.44

Continue with the sequence presented below.
[in] Quick check: protein stability index of AAGRVCRPPGPAGTEQSRGLGHGS [CPOX] ?
[out] 4.53

* * *

method notes: protein stability index of a GFP-peptide fusion (GPS, HEK-293T) (PSI 1-6); higher = more stable
conditions used: treatment: DMSO; c terminus: a fixed tail appended
metric: protein stability index

Answered examples (5):
- polymer sequence: "MLLSVSQSMSEEEREKVTPLMVKG [SEPHS2]"
  value reported: 3.83
- polymer sequence: "LISNASDALDKIRYESLTDPSKLD [HSP90AB1]"
  value reported: 3.75
- polymer sequence: "HSYMGMRGFCAFLGSWLVPFAYLT [POMT2]"
  value reported: 2.96
- polymer sequence: "QLLARRMQVDKKRVYLATDDPSLL [FUT8]"
  value reported: 2.61
- polymer sequence: "ACGDFFTACLTDRGIIMTFGSGSN [NEK8]"
  value reported: 2.66

[in] Form field: reported protein stability index of REQGPREQEPELSFLKQKEQLEAE [PBXIP1]
[out] 5.5

[in] Tell me the measured protein stability index of RFIRERDRAVNDYPSLYYPEMYIL [CDC25B] , please.
[out] 2.49

[in] Find the recorded protein stability index belonging to RTPLHYAAANCHFHCIETLVTTGA [ANKRD44] and report it.
[out] 2.36

[in] Consider the sequence shown here: LSSSIIHEIDSILGNKPYSKKDYR [KCNAB2] What is its recorded protein stability index?
[out] 2.65

[in] I am curious: what protein stability index value has been reported for IIEELGEQRDQLERTKSRLVNTSE [VTI1B] ?
[out] 4.57

[in] What protein stability index value was documented for this sequence, SLIQLLGRNFILFIIFGTMEEMQN [HACD3] ?
[out] 2.92

[in] Record request: protein stability index value, item GARYEVTVVSVRGFEESEPLTGFL [TNXB]
[out] 2.53

[in] Quick one: protein stability index for LAPGPAPTRCLPGHKEEEDGEGAG [ESRRA] ?
[out] 5.45
